- System Tested: rabbit antibody A4 scFv (wild type) (rabbit)
- Sequence (heavy, as listed by the source, chain 1 of 2): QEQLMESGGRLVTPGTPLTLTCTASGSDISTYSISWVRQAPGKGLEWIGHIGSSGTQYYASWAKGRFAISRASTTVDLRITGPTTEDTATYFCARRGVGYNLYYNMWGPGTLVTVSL
- Sequence (light, as listed by the source, chain 2 of 2): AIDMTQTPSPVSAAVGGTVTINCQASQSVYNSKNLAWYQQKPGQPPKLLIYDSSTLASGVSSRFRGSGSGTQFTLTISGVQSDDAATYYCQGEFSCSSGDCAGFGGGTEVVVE
- Assay Summary: ITC; iTC200; 5 μM scFv in the cell, 50 μM peptide in the syringe; samples dialyzed against PBS; triplicate
pKd: −log10 of the molar value. Where no end group is shown, it is not given here. [ ]: non-standard residue; d: D form. pS = N[C@@H](COP(=O)(O)O)C(=O)O
Metric Name: pKd

> print(dat)
                                     binder  value
1  RPHFPQF[pS]YSAS [phosphorylated Akt peptide]   8.48
